Listing of entries alongside the reported Kd.
Biological target: Sortilin (Homo sapiens)
Construct: purchased Bio-Techne Ltd 3154-ST-050
Sequence (Q99523 78-755 limits assumed): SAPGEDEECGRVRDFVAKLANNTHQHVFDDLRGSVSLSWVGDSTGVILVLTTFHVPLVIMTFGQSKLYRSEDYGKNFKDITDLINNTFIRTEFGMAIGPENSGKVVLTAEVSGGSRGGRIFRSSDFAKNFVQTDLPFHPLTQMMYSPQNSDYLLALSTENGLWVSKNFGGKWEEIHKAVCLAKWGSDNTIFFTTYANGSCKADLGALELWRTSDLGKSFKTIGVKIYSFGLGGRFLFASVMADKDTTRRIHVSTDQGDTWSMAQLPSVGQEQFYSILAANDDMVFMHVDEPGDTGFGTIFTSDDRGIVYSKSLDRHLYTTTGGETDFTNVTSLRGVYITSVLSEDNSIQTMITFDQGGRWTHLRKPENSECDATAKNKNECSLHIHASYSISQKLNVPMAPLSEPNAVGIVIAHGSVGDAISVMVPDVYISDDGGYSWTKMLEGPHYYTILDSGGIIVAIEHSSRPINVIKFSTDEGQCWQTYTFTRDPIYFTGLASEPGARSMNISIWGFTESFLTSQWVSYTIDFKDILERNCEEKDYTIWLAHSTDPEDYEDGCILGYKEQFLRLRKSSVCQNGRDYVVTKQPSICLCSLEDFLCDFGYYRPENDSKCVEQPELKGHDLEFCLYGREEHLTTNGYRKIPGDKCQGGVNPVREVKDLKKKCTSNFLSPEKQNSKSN
Test: Creoptix (GCI) binding kinetics, human Sortilin
Conditions: Species Human; Form of Compound Free acid; screened at 1 µM, 25 degrees Celsius
Quantity: Kd (nM)

CN1CCOc2ccc(CN[C@@H](CCC(C)(C)C)C(=O)O)cc21 = 5070
CC(C)(C)CC[C@H](NCc1ccc2c(c1)NCCC2)C(=O)O = 97.3
C[C@@H](N[C@@H](CCC(C)(C)C)C(=O)O)c1ccc2c(c1)OCCC2 = 227

----------
Biological target: h-Sortilin (Homo sapiens, UniProt Q99523)
Sequence (Q99523 78-831): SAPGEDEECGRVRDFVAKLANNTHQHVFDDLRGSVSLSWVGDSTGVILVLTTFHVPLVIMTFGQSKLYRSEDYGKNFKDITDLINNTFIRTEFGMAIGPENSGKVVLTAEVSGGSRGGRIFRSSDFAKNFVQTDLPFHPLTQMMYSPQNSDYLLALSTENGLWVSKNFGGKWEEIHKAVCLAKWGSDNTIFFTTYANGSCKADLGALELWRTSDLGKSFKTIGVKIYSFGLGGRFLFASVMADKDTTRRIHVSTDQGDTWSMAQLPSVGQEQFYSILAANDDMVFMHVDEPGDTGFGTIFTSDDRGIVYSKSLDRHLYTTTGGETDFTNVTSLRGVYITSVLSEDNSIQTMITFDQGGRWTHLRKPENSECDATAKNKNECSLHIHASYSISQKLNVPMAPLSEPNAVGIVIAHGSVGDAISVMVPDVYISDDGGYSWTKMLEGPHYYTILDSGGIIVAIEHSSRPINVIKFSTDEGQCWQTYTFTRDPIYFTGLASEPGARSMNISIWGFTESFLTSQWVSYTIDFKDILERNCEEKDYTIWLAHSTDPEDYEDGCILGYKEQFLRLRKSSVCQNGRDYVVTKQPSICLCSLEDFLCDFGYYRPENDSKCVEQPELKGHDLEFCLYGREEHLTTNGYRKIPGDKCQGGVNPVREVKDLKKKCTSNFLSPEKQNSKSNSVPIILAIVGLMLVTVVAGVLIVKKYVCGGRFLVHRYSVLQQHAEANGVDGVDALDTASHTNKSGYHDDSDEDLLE
Quantity: IC50 (µM)

CC(C)(C)CC[C@H](NCc1cnc2c(c1)CCCO2)C(=O)O = 0.58
C[C@H](N[C@@H](CCC(C)(C)C)C(=O)O)c1ccc2c(c1)OCCC2 = 0.3
C[C@@H](N[C@@H](CCC(C)(C)C)C(=O)O)c1ccc(Oc2ccccc2)nc1 = 0.41
CC(C)(C)CC[C@H](NCc1cnc2c(c1)CCCC2)C(=O)O = 0.14
CC(C)(C)CC[C@H](N[C@@H](c1ccc2c(c1)CCCC2)C(F)(F)F)C(=O)O = 0.16
CC(C)(C)CC[C@H](NCc1ccc2c(c1)COCC2)C(=O)O = 0.23
CN1CCOc2cc(CN[C@@H](CCC(C)(C)C)C(=O)O)ccc21 = 0.66
Cc1cc(CN[C@@H](CCC(C)(C)C)C(=O)O)cc2c1CCCO2 = 0.31
CN1C(=O)COc2ccc(CN[C@@H](CCC(C)(C)C)C(=O)O)cc21 = 0.26

----------
Molecular target: Sortilin (Mus musculus, UniProt Q6PHU5)
Construct: purchased Bio-Techne Ltd 2934-ST-050
Sequence (Q6PHU5 76-753 limits assumed): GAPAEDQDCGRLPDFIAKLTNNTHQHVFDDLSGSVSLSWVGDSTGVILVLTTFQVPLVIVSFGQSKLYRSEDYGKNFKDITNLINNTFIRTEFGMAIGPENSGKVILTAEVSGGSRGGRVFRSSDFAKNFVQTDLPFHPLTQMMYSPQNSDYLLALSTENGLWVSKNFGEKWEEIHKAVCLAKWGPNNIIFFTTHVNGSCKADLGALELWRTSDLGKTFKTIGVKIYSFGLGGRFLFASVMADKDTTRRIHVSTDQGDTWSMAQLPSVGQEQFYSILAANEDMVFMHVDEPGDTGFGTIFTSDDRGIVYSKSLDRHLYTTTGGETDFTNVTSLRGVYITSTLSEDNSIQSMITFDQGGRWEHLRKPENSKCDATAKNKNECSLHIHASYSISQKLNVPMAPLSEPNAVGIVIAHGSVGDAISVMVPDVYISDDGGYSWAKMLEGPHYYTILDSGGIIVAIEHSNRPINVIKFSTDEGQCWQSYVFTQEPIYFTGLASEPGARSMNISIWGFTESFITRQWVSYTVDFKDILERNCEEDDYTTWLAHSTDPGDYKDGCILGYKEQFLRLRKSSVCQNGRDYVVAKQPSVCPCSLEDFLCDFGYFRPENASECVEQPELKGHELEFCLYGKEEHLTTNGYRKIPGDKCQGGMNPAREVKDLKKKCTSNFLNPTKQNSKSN
Experiment: Creoptix (GCI) binding kinetics, mouse Sortilin
Conditions: Species Mouse; Form of Compound Free acid; screened at 1 µM, 25 degrees Celsius
Method: Creoptix (GCI) method - using SEQ ID NO.4 (Murine sortillin) A protein, bound to a surface, is bathed in a solution containing potential ligands giving rise to binding kinetics to generate Kon and Koff rates, as well as a Kd. […] Data was evaluated using the RAPID kinetic analysis tool in the GCI WAVE_control software with data fitted using a standard 1:1 kinetic BioModel.
Quantity: Kd (nM)

C[C@@H](N[C@@H](CCC(C)(C)C)C(=O)O)c1ccc2c(c1)OCCC2 = 60
CN1CCOc2ccc(CN[C@@H](CCC(C)(C)C)C(=O)O)cc21 = 7600
CC(C)(C)CC[C@H](NCc1ccc2c(c1)CCCN2)C(=O)O = 299
C[C@H](N[C@@H](CCC(C)(C)C)C(=O)O)c1ccc2c(c1)CCCO2 = 258
CN1CCOc2cc(CN[C@@H](CCC(C)(C)C)C(=O)O)ccc21 = 3180
C[C@@H](N[C@@H](CCC(C)(C)C)C(=O)O)c1ccc2c(c1)NCCC2 = 70.3
C[C@H](N[C@@H](CCC(C)(C)C)C(=O)O)c1ccc2c(c1)OCO2 = 116
CN1CCc2cc(CN[C@@H](CCC(C)(C)C)C(=O)O)ccc2C1 = 241
CC(C)(C)CC[C@H](NCc1ccc2c(c1)COCC2)C(=O)O = 65
CC(C)(C)CC[C@H](NCc1ccc2c(c1)CNCC2)C(=O)O = 2280
